The reported measurements were obtained from the nanobody polyreactivity screen of Harvey et al. (2022).

test: yeast display, Sf9 membrane polyspecificity reagent, FACS + sequencing; frameworks hold sequencing errors
observedProperty: polyreactivity (PSR sort gate)

# annotated cases, reported polyreactivity (PSR sort gate) shown
[[record]]
sequencerecord = "QVQLVESGGGLVQAGGSLLFSCAASGHIFRTYAMGWYRQAPGKERELVAAINIGGTTDYADSVKGRFTISRDNAKNTVYLQMNSLKPEDTAVYYCNAYNRFWEYVYWGQGTQVTVSS"
observedproperty = "polyreactivity (PSR sort gate)"
experimentalresult = "low polyreactivity"

[[record]]
sequencerecord = "QVQLVESGGGLVQAGGSLRLSCAASGLTFRIYAMGWYRQAPGKERQLVAAISYRGGSTYYADSVKGRFTISRDNAKNTVYLQMNSLKPEDTAVYYCAAGFVLNGIRYDYWGQGTQVTVSS"
observedproperty = "polyreactivity (PSR sort gate)"
experimentalresult = "high polyreactivity"

[[record]]
sequencerecord = "QVQLVESGGGLVQAGGSLRLSFAASGFIFDKYAMGWYRQAPGKERELVATITSGGSTYYADSVKGRFTISRDNAKNYVYLQMYSLKREDTADYYCAALDYGYRWYRYYYWGQGSQVTVSS"
observedproperty = "polyreactivity (PSR sort gate)"
experimentalresult = "high polyreactivity"

[[record]]
sequencerecord = "QVQLVESGGGLVQAGGSLRLSCAASGRTFRYYTMGWYRQAPGKERELVAAITRNGGRTYYADSVKGRFTISRDNAKNTVYLQMNSLKPEDTAVYYCAAGTYDGGYHYDYWGQGTQVTVSS"
observedproperty = "polyreactivity (PSR sort gate)"
experimentalresult = "high polyreactivity"

[[record]]
sequencerecord = "QVQLVESGGGLVQAGGSLRLSCAASGFTFYYNAMGWYRQAPGKERELVASISSNGTSTYYADSVKGRFTISRDNAMYTVYLQMNSLKPEDTAGYYCAADDVCVYWSSTHNWARGDYWGQGSQVTVSS"
observedproperty = "polyreactivity (PSR sort gate)"
experimentalresult = "low polyreactivity"


Incoming: Fill in: polyreactivity (PSR sort gate) of QVQLVESGGGLVQAGGSLRLSCAASGRTFPLNAMGWYRQAPGKERELVAAITWSGGRTYYADSVKGRFTISRDNAKNTVYLQMNSLKPEDTAVYYCATDRYAYKLYDYWGQGTQVTVSS is ___
Outgoing: low polyreactivity

Incoming: Fill in: polyreactivity (PSR sort gate) of QVQLVESGGGLVQAGGSLRLSSAASGSTFGYNAMGRYRPAPGKERELVAAISRSGGSTSNADSVMGRFTISRDNANNTVYLQMNSLKPEDTAVYYCAARYYKERYWGQGTQVTVSA is ___
Outgoing: low polyreactivity

Incoming: Fill in: polyreactivity (PSR sort gate) of QVQLVESGGGLVQAGGSLRLSCAASGRIFVPYVMGWYRQAPGKERELVASISDSDTSTYYADSVKGRFTISRDNAKNTVYVQMNSLKPEDTAVYYCNVDYWGQGTQVTVSS is ___
Outgoing: low polyreactivity

Incoming: Fill in: polyreactivity (PSR sort gate) of QVQLQESGGVLVQAGGSLRLSCAASGNILDADIMGWYRQAPGKERELVASITDGGSTNYADSVKGRFTISRDNAKNTVYLQMNSLKPEDTAVYYCAAIAYPDIPTYFDYDSEYFYWGQGTQVTVSS is ___
Outgoing: low polyreactivity

Incoming: Fill in: polyreactivity (PSR sort gate) of QVQLVESGGGLVQAGGSLRLSCAASGSTLRPYAMGWYRQAPGKERELVAAISKSGASTYYADSVKGRFTISRDNAQNTVYLQMNSLKPEDTAVYYCNAGRGTGETLYGYDYWGQGTQVTVSS is ___
Outgoing: high polyreactivity

Incoming: Fill in: polyreactivity (PSR sort gate) of QVQLVESGGGLVQAGGSLRLICAASGSTFKRYAMGWYRQAPGKERELVAAISTRGSTYYADSVKGRFTISRDNAKNTVYLQMNSLKPEDTAVYYCNARQALVWKWSWYSPGYDYWGQGTQVTVSS is ___
Outgoing: low polyreactivity

Incoming: Fill in: polyreactivity (PSR sort gate) of QVQLVQSGGGLVQAGGSLRLSCAASGSTFPQNAMGWNRQAPGKERELVAVISRSGGNTYYADSVKGRFTISRDNAKNTVYLQMNSLKPEDTAVYYCATRVNTTYDYWGQGTQVTVSS is ___
Outgoing: low polyreactivity
